These data points were gathered from the Human Domainome abundance scans (Beltran et al. 2025).

B1: Retinoic acid receptor beta, residues 85 to 161; numbered along this chain, P10826 (parent)
chain: YKPCFVCQDKSSGYHYGVSACEGCKGFFRRSIQKNMIYTCHRDKNCVINKVTRNRCQYCRLQKCFEVGMSKESVRND

Variants of: B1
testDetails: abundance fitness (aPCA) (normalised: wild type 0, dead -1); higher = more abundant; growth selection in yeast, the domain comes from the species named
settings: Homo sapiens
Use -0.05 as the dividing line for abundance fitness, with the line itself on the met side and lower values as not met.

{"columns": ["sequenceRecord", "label"],
 "data": [
  ["YKPCFVCQDKSSGYHYGVSACEGCKGFFRRSIQKNMIYTCHRDKNCVINKVWRNRCQYCRLQKCFEVGMSKESVRND", "met"],
  ["YKPCFVCQDKSSGYHYGVSACEGCKGFFRRSIAKNMIYTCHRDKNCVINKVTRNRCQYCRLQKCFEVGMSKESVRND", "met"],
  ["YKPCFVCQDKSSGYHYGVSACEGCKGFFRRSIQKNMIYTCHRDKNCVINIVTRNRCQYCRLQKCFEVGMSKESVRND", "met"],
  ["YKPCFVCQDKISGYHYGVSACEGCKGFFRRSIQKNMIYTCHRDKNCVINKVTRNRCQYCRLQKCFEVGMSKESVRND", "not met"],
  ["YKPCFVCQDKSSGYHYGVSACEGCKGFFRRSIQKNMICTCHRDKNCVINKVTRNRCQYCRLQKCFEVGMSKESVRND", "not met"],
  ["YKPCFVCQDKSSGYHYGVSACEGCKGFFRREIQKNMIYTCHRDKNCVINKVTRNRCQYCRLQKCFEVGMSKESVRND", "not met"],
  ["YKPCFVCQDKSSGYHYGVSACEGCKGFFRRSIQKNMIYTCHRDKNIVINKVTRNRCQYCRLQKCFEVGMSKESVRND", "not met"],
  ["YKPCFVCQDKSSGYHYNVSACEGCKGFFRRSIQKNMIYTCHRDKNCVINKVTRNRCQYCRLQKCFEVGMSKESVRND", "not met"],
  ["YKPCFVCQKKSSGYHYGVSACEGCKGFFRRSIQKNMIYTCHRDKNCVINKVTRNRCQYCRLQKCFEVGMSKESVRND", "not met"],
  ["YKPCFVCQDKSSGYHYGVSACEGCKGFFRRSIQKWMIYTCHRDKNCVINKVTRNRCQYCRLQKCFEVGMSKESVRND", "not met"],
  ["YKPCFVCQDKSSGYHYGVSACEGCKGFFRRSIQKNMIYTCHRDKMCVINKVTRNRCQYCRLQKCFEVGMSKESVRND", "met"],
  ["YKPCFVCQDKSSGYHYGVSACEGCKGFFRRSIQKNMIYTCHRDKNCVINKVTRNFCQYCRLQKCFEVGMSKESVRND", "not met"],
  ["YKPCFVCQDKSSVYHYGVSACEGCKGFFRRSIQKNMIYTCHRDKNCVINKVTRNRCQYCRLQKCFEVGMSKESVRND", "not met"],
  ["YKPCFVCQDKSSGYHYGVSACEGCKGFFARSIQKNMIYTCHRDKNCVINKVTRNRCQYCRLQKCFEVGMSKESVRND", "met"],
  ["YKPCFVCQDKSSGYHYGVSACEGCKGFFRRSIQKNMIYTCHRDKNCVINKVTRNRCQRCRLQKCFEVGMSKESVRND", "not met"]
]}
